Where these numbers come from: patent US20240376214A1

# MEASURED_TARGET: human c-Met (HGFR), full length, on the cell surface (human, UniProt P08581 25-1390)
# Sequence (P08581 25-1390 limits assumed): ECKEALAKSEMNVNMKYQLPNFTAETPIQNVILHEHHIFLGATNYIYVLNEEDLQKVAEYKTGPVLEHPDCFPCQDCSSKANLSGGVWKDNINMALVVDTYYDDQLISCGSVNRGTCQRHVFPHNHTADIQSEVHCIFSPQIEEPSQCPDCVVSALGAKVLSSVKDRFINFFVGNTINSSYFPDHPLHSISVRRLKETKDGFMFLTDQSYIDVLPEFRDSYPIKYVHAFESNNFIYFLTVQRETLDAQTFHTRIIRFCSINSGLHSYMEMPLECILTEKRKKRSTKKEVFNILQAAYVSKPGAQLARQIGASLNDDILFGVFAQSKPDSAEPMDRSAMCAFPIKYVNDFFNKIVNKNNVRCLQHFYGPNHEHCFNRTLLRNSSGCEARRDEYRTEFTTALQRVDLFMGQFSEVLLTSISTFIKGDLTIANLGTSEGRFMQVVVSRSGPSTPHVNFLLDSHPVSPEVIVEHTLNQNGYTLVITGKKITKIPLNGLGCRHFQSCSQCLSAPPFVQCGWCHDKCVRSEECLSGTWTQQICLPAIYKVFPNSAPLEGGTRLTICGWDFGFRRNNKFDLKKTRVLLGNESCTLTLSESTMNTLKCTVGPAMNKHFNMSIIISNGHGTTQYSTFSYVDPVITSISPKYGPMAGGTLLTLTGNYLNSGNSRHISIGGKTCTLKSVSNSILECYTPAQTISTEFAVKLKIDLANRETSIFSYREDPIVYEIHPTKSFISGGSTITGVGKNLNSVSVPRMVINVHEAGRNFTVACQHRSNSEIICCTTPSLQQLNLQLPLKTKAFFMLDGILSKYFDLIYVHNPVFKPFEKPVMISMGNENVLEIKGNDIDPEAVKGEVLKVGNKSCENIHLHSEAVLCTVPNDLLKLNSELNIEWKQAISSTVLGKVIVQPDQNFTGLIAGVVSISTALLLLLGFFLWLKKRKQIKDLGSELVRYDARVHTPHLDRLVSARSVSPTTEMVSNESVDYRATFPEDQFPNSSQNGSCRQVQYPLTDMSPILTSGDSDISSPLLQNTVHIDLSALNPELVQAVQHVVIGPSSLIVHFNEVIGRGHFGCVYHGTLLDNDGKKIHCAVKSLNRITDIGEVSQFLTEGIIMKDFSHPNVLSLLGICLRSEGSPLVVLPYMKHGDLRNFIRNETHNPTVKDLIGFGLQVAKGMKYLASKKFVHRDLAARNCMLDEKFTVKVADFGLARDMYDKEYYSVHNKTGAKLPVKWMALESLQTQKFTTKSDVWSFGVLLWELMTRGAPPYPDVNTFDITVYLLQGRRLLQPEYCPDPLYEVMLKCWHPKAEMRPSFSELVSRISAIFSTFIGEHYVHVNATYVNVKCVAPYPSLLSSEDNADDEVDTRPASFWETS
# ASSAY_INFO: cell-based or functional assay
READOUT: Efficacy (%), in vitro cytotoxicity, NCI-H596, +HGF

{"BINDER": "ADC3c (antibody, human IgG1, kappa, V domains shown, vc-seco-DUBA linker-drug on the engineered cysteine at HC position 41 (Kabat); DAR 1.8) VH: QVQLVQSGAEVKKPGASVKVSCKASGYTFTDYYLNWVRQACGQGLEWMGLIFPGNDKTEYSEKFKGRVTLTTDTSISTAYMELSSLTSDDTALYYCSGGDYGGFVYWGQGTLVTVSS VL: DIQMTQSPSSLSASVGDRVTITCGASENIYGALNWYQQKPGKAPKLLIYGATNLADGVPSRFSGSGSGTDFTLTISSLQPEDVATYYCQNVLSSPLTFGSGTKLEIKR", "RESULT": "44%"}
{"BINDER": "ADC2 (antibody, human IgG1, kappa, V domains shown, vc-seco-DUBA linker-drug on the engineered cysteine at HC position 41 (Kabat); DAR 1.7) VH: QVQLQQSGAELVRPGASVKLSCKASGYVFPDYEMHWVKQTCVHGLEWIGAFDPETGDTTYNQNFKGKATLTADKASSTAYMDLRSLTSGDSAVYYCARDYKYLYYYAMDNWGQGTSVTVSS VL: QIVLTQSPAIMSASLGERVTMTCTASSSITSSYLHWYQQKPGSSPKLWIYSTTNLASGVPGRFSGSGSGTSFSLTISSMEAEDAATYYCHQYRRSPLTFGAGTKLELKR", "RESULT": "32%"}
{"BINDER": "ADC3e (antibody, human IgG1, kappa, V domains shown, vc-seco-DUBA linker-drug on the engineered cysteine at HC position 41 (Kabat); DAR 1.9) VH: QVQLQESGAEVKKPGASVKVSCKASGYTFTDYYLNWVRQACGQGLEWMGLIFPGNDKTEYSEKFKGRVTMTRDTSTSTVYMELSSLRSEDTAVYYCSGGDYGGFVYWGQGTLVTVSS VL: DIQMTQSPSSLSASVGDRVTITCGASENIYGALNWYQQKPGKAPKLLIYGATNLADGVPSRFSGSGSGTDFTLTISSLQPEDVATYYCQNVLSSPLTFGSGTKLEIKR", "RESULT": "44%"}
{"BINDER": "ADC2a (antibody, human IgG1, kappa, V domains shown, vc-seco-DUBA linker-drug on the engineered cysteine at HC position 41 (Kabat); DAR 1.7) VH: QVQLVQSGAELRKPGSSVKVSCRASGYVFPDYEMHWVRQACGQGLEWMGAFDPETGDTTYNQNFKGRVTIAADKSTSTAYMELRSLRSEDTAIYYCARDYKYLYYYAMDNWGQGTMVTVSS VL: EIVLTQSPSLLSASIGDRVTIPCTASSSITSSYLHWYQQKPGKAPKLLIYSTTNLASGVPSRFSGSGSGTEFTLTISSLQPEDFATYYCHQYRRSPLTFGGGTKLEIKR", "RESULT": "26%"}
